Readings of k1 for the listed molecules
SYSTEM UNDER TEST: Neutrophil elastase (Homo sapiens) (UniProt P08246)
Sequence (P08246 whole entry): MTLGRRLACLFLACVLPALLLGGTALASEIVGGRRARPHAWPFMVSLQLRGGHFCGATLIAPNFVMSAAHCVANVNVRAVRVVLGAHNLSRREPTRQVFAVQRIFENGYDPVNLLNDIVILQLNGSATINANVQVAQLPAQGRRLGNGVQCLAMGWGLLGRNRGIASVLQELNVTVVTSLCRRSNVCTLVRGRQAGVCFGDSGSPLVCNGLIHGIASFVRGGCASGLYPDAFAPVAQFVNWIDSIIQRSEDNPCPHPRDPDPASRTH

{"columns": ["MOL", "UNIT ABBREVIATION", "k1"],
 "data": [
  ["CC(C)Nc1nc2ccccc2c(=O)o1", "M⁻¹ s⁻¹", 59000],
  ["CCCNc1nc2cccc(C)c2c(=O)o1", "M⁻¹ s⁻¹", 56000],
  ["CNc1nc2cccc(C)c2c(=O)o1", "M⁻¹ s⁻¹", 4800],
  ["CCCCNc1nc2cccc(CC)c2c(=O)o1", "M⁻¹ s⁻¹", 130000]
]}

* * *

SYSTEM UNDER TEST: Neutrophil elastase (Homo sapiens, UniProt P08246)
EXPERIMENTAL DETAILS: Binding affinity against human leukocyte elastase was determined
Binarize Ki at 90 nM; below is condition met, at or above is condition not met.

{"columns": ["COMPOUND", "SYSTEM UNDER TEST", "ANSWER LABEL"],
 "data": [
  ["CNc1nc2cccc(C)c2c(=O)o1", "Neutrophil elastase (Homo sapiens, UniProt P08246)", "condition not met"],
  ["Nc1nc2ccccc2c(=O)o1", "Neutrophil elastase (Homo sapiens, UniProt P08246)", "condition not met"],
  ["Cc1cccc2nc(NC(C)C)oc(=O)c12", "Neutrophil elastase (Homo sapiens, UniProt P08246)", "condition met"],
  ["CCCCNc1nc2cccc(CC)c2c(=O)o1", "Neutrophil elastase (Homo sapiens, UniProt P08246)", "condition met"],
  ["CCCNc1nc2cccc(C)c2c(=O)o1", "Neutrophil elastase (Homo sapiens, UniProt P08246)", "condition met"],
  ["CCc1cccc2nc(NC(C)C)oc(=O)c12", "Neutrophil elastase (Homo sapiens, UniProt P08246)", "condition met"],
  ["CCC(C)Nc1nc2ccccc2c(=O)o1 (stereo unspecified)", "Neutrophil elastase (Homo sapiens, UniProt P08246)", "condition met"],
  ["CCCCNc1nc2cccc(C)c2c(=O)o1", "Neutrophil elastase (Homo sapiens, UniProt P08246)", "condition met"],
  ["CNc1nc2ccccc2c(=O)o1", "Neutrophil elastase (Homo sapiens, UniProt P08246)", "condition not met"],
  ["CCCCCCNc1nc2ccccc2c(=O)o1", "Neutrophil elastase (Homo sapiens, UniProt P08246)", "condition not met"],
  ["CCc1cccc2nc(N)oc(=O)c12", "Neutrophil elastase (Homo sapiens, UniProt P08246)", "condition not met"],
  ["CC(C)Nc1nc2ccccc2c(=O)o1", "Neutrophil elastase (Homo sapiens, UniProt P08246)", "condition met"],
  ["CCNc1nc2cccc(C)c2c(=O)o1", "Neutrophil elastase (Homo sapiens, UniProt P08246)", "condition met"],
  ["CCNc1nc2ccccc2c(=O)o1", "Neutrophil elastase (Homo sapiens, UniProt P08246)", "condition met"],
  ["CCCCNc1nc2ccccc2c(=O)o1", "Neutrophil elastase (Homo sapiens, UniProt P08246)", "condition met"]
]}
